- assay.system: Dopamine receptor (Rattus norvegicus) (UniProt P25115+P19020+P30729+P18901+P61169)
- protocol.notes: Effect of accumulation of DOPA in rat striatum at the dose of 32 umol/kg
- Type: functional, tissue-based
Output met for Accumulation not less than 100; output not met otherwise.

CCCN(CCC)[C@H]1CCc2cccc(C(=O)c3ccccc3)c2C1 :: not met
CCCN(CCC)[C@H]1CCc2cccc(C)c2C1 :: met
C#Cc1cccc2c1C[C@H](N(CCC)CCC)CC2 :: not met
C#Cc1cccc2c1C[C@@H](N(CCC)CCC)CC2 :: not met
CCCN(CCC)C1CCc2cccc(C(=O)OC)c2C1 (racemic) :: not met

---

- assay.system: 5-hydroxytryptamine receptor 1A (Rattus norvegicus) (UniProt P19327)
- Sequence (P19327 whole entry): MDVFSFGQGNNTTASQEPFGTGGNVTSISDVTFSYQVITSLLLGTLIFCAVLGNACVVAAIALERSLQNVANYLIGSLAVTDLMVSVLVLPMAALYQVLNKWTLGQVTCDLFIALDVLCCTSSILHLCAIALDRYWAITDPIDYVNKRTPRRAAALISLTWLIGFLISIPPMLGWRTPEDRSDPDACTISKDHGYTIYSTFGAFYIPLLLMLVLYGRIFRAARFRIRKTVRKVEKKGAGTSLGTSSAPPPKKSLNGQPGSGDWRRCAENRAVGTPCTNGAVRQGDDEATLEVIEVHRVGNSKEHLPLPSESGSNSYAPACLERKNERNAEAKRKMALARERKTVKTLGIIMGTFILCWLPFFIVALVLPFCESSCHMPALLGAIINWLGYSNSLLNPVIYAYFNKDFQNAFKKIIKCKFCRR
- protocol.notes: Effect of 5-HT accumulation in rat hippocampus at the dose of 32 umol/kg (p<0.01)
- Type: functional, tissue-based
readout.name: Accumulation

CCCN(CCC)[C@@H]1CCc2cccc(C)c2C1 :: 54
C#Cc1cccc2c1C[C@H](N(CCC)CCC)CC2 :: 43
CCCN(CCC)[C@H]1CCc2cccc(CO)c2C1 :: 58
CCCN(CCC)[C@@H]1CCc2cccc(C(=O)c3ccccc3)c2C1 :: 56
CCCN(CCC)[C@@H]1CCc2cccc(CO)c2C1 :: 47
C#Cc1cccc2c1C[C@@H](N(CCC)CCC)CC2 :: 31
CCCN(CCC)[C@H]1CCc2cccc(C)c2C1 :: 64

---

- assay.system: Dopamine receptor (Rattus norvegicus) (UniProt P25115+P19020+P30729+P18901+P61169)
- protocol.notes: Dopamine (DA) turnover in rat corpus striatum
- Assay type: functional, tissue-based
// classify(record): look up Turnover in ranges small value: < 90; mid value: ≥ 90 and < 100; large value: ≥ 100

CCCN(CCC)[C@@H]1CCc2cccc(O)c2C1 :: mid value
C#Cc1cccc2c1C[C@H](N(CCC)CCC)CC2 :: small value
CCCN(CCC)[C@H]1CCc2cccc(O)c2C1 :: large value
CCCN(CCC)[C@@H]1CCc2cccc(C(=O)c3ccccc3)c2C1 :: large value
CCCN(CCC)[C@H]1CCc2cccc(C)c2C1 :: small value
CCCN(CCC)[C@H]1CCc2cccc(CO)c2C1 :: large value
C#Cc1cccc2c1C[C@@H](N(CCC)CCC)CC2 :: small value
CCCN(CCC)[C@@H]1CCc2cccc(OS(=O)(=O)C(F)(F)F)c2C1 :: mid value
CCCN(CCC)[C@H]1CCc2cccc(OC)c2C1 :: small value
CCCN(CCC)[C@H]1CCc2cccc(OS(=O)(=O)C(F)(F)F)c2C1 :: large value
CCCN(CCC)[C@@H]1CCc2cccc(C(C)=O)c2C1 :: large value
CCCN(CCC)[C@H]1CCc2cccc(C(C)=O)c2C1 :: large value
CCCN(CCC)[C@@H]1CCc2cccc(-c3ccccc3)c2C1 :: small value

---

- assay.system: 5-hydroxytryptamine receptor 1A (Rattus norvegicus) (UniProt P19327)
- protocol.notes: Induction of clear-cut 5-HT motor syndrome in normal rats at the dose of 32 micro mol/kg
- Format: functional
# maps each entry to its Behavioral effect
readout.name: Behavioral effect

CCCN(CCC)[C@H]1CCc2ccccc2C1 :: 5
CCCN(CCC)[C@H]1CCc2cccc(-c3ccccc3)c2C1 :: 0
CCCN(CCC)[C@@H]1CCc2cccc(CO)c2C1 :: 4
